Sequence of the target: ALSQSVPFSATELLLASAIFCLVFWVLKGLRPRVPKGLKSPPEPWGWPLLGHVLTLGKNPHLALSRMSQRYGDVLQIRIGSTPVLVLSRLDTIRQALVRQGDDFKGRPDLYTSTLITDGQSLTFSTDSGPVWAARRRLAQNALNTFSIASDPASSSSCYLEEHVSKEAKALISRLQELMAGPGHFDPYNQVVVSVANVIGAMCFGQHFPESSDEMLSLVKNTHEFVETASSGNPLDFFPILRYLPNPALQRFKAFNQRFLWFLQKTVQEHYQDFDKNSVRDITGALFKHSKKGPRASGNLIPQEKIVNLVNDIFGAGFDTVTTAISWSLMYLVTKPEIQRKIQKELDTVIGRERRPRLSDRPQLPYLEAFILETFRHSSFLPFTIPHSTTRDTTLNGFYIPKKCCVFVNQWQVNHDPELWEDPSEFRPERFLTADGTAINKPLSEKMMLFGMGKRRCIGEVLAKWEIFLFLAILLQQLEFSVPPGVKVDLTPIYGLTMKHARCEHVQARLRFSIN
pIC50: −log10 of the molar value.
Quick reference: pIC50 of the listed items.

• CC(C)(C)c1cc(=S)ss1 = ~4.89

Field: next molecule
Entry `Cc1c(-c2cnccn2)ssc1=S` — recorded pIC50 = ~6.70

Data provenance: paper PMC2650797
